# test_summary: MTT cytotoxicity assay, HEK001 keratinocytes
# Format: cell-based, human
# measurement_setup: human, HEK001 epidermal keratinocytes, 24 h exposure, MTT, HEK001 keratinocytes; average ± standard deviation; read-out: EC50 from cytotoxicity assay, HEK001
EC50 at 24 h values by entry
Field: numeric (µM). Do not append units.

For orientation, consider the following solved cases.
{"columns": ["compound", "readout_kind", "readout_number"],
 "data": [
  ["CCOC(=O)c1ccc(O)cc1", "EC50 at 24 h", 536],
  ["COC(=O)c1cc(Cl)c(O)c(Cl)c1 [DCMeP, methyl 3,5-dichloro-4-hydroxybenzoate]", "EC50 at 24 h", 54.5],
  ["COC(=O)c1ccc(O)cc1 [MeP, Methyl 4-hydroxybenzoate]", "EC50 at 24 h", 1310],
  ["O=C(O)c1ccc(O)cc1 [HBA, 4-hydroxybenzoic acid]", "EC50 at 24 h", 696],
  ["COC(=O)c1ccc(O)c(Cl)c1 [CMeP, methyl 3‑chloro-4-hydroxybenzoate]", "EC50 at 24 h", 2.2]
]}

Exercise: Let me know recorded EC50 at 24 h for COC(=O)c1cc(Br)c(O)c(Br)c1 [DBMeP, methyl 3,5-dibromo-4-hydroxybenzoate] , thanks.
Solution: 1.49

Exercise: Let me know recorded EC50 at 24 h for "CCCOC(=O)c1ccc(O)cc1" , thanks.
Solution: 17

Exercise: Let me know recorded EC50 at 24 h for "CCCCOC(=O)c1ccc(O)cc1" , thanks.
Solution: 1.52

Exercise: Let me know recorded EC50 at 24 h for "O=C(OCc1ccccc1)c1ccc(O)cc1" , thanks.
Solution: 3.34
